- Target Entity: T1, CD71 apical domain (human, UniProt P02786 189-383, limits assumed)
- T1 construct: domain: apical domain
- T1 sequence (P02786 189-383 limits assumed): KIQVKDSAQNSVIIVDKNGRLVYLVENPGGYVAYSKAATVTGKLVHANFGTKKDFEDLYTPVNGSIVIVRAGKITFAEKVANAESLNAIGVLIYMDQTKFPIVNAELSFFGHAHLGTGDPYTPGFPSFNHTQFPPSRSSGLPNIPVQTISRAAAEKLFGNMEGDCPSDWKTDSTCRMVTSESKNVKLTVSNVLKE
- Test Protocol: solution ELISA screen (luminescence)
Quantity Kind: RLU (RLU)

* SEQ ID NO 267 (designed binder, not shown: small tags and cut ends) MLPAPKNLVVSRVTEDSARLSWTAPDAAFDSFYIAYAEPRPDGEAIGLWVPGSERSYDLTGLKPGTEYSVLIHGVKGGLLSSPLVAYFTT | 5.55e+06
* SEQ ID NO 219 (designed binder, not shown: small tags and cut ends) MLPAPKNLVVSRVTEDSARLSWTAPDAAFDSFYIAYAEPRPDGEAISLKVPGSERSYDLTGLKPGTEYSVLIHGVKGGLLSSPLEAIFTT | 4.95e+06

[a] SEQ ID NO 245 (designed binder, not shown: small tags and cut ends) MLPAPKNLVVSRVTEDSARLSWTAPDAAFDSFYIAYAEPRPDGEAIALWVPGSERSYDLTGLKPGTEYSVLIHGVKGGLLSSPLVASFTT
[b] SEQ ID NO 261 (designed binder, not shown: small tags and cut ends) MLPAPKNLVVSRVTEDSARLSWTAPDAAFDSFYIAYAEPRPDGEAILLQVPGSERSYDLTGLKPGTEYSVLIHGVKGGLLSSPLIAKFTT
[ask] Larger number for RLU: a , or b ? Your choice should be expressed through its label.
[reply] a
(a: 4.77e+06 RLU, b: 93200 RLU)
